Reference source for all entries: patent US20230272051A1

Below: a set of entries, each annotated with reported Kd.
target: T1, SARS-CoV-2 Receptor Binding Domain (RBD) protein (SARS-CoV-2, UniProt P0DTC2 319-541); assay: SPR (Carterra LSA); scFv captured by anti-V5, RBD as analyte
T1 construct: also called Sars-Cov-2 (COV2)
Numbers only; they are read as nM.

BINDER: COVID19_P14_D11 (scFv, V domains shown) VH: QVQLVQSGAEVKKPGSSVKVSCKASGYTFNRFAMTWVRQAPGQGLEWMGTINPSGGSTIYTQRFQGRVTITADESTSTAYMELSSLRSEDTAVYYCGHDTVMGGMGEWGQGTLVTVSS VL: SSYVLTQPPSVSVAPGKTARITCGGNNIGSKSVHWYQQKPGQAPVLVIYYDSDRPSGIPERFSGSNSGNTATLTISRVEAGDEADYYCQSTDSSSDYVFGGGTKLTVLA
REPORTED_VALUE: 48.2

Turning now to a further binder:
What measured Kd goes with COVID19_P01_H06 (scFv, V domains shown) VH: QVQLVQSGAEVKKPGSSVKVSCKASGYTFTSYYMHWVRQAPGQGLEWMGLIDPSGGTTSYAQKFQGRVTITADESTSTAYMELSSLRSEDTAVYYCVWDTVMGGMDVWGQGTLVTVSS VL: SYVLTQPPSVSVAPGKTAARITCGGNNIGSKSVHWYQQKPGQAPVLVIYKDGERPSGIPERFSGSNSRNTATLTISRVEAGDEADYYCQVWDSSSLYVFGGGTKLTVLA ? 1.31
